Below: a set of entries, each annotated with reported protein stability index.
experiment: protein stability index of a GFP-peptide fusion (yeast GPS) (PSI 1-4); higher = more stable; sorted into four equal gates, so the index is relative within each strain; conditions: san1∆
API doc: respond with a numeric literal and nothing else, no unit.

Give protein stability index for the following sequence: KDQLPDLESMGLTQLYK [MED7]
2.87

Determine from records and report protein stability index for FLTNYNVRMDTMANILY [RPB2]
3.48

---

assay: protein stability index of a GFP-peptide fusion (yeast GPS) (PSI 1-4); higher = more stable; sorted into four equal gates, so the index is relative within each strain; details: pdr5∆
Recorded protein stability index by entry

Below, 3 sequences whose answers are already recorded.
PDLPALEASYSKSYTPR [SMC4]; 3.02
NTSSKRQKKKPTSAQKS [IRR1]; 2.59
LAVIMDNIGEIDESLFN [YCG1]; 3.1

Shift focus to the following entry.
Return value of protein stability index for input LRSKLFQFKLLQSNSKL [SMC4] , no commentary.
1.79
